test system: MCF7; experiment: Anticancer activity against human MCF7 cells assessed as cell viability at 100 uM after 24 hrs by MTT assay; type: functional; conditions: MCF7, 24 h, read-out: Activity
MEASURED METRIC: viability at 100 µM
Express your answer as a number followed by its unit.

Examples from the recorded data:
>  <MOLECULE>
OCC(O)Cn1nc2c(Br)c(Br)c(Br)c(Br)c2n1 (racemic)

>  <viability at 100 µM>
53%

$$$$
>  <MOLECULE>
C[C@@H](O)CCn1nc2c(Br)c(Br)c(Br)c(Br)c2n1

>  <viability at 100 µM>
18%

$$$$
>  <MOLECULE>
C[C@H](O)CCn1nc2c(Br)c(Br)c(Br)c(Br)c2n1

>  <viability at 100 µM>
31%

$$$$

Note to self: viability at 100 µM recorded for OC(CCn1nc2c(Br)c(Br)c(Br)c(Br)c2n1)c1ccccc1 (racemic) was 13%

GET /value?item= OC(CCn1nc2c(Br)c(Br)c(Br)c(Br)c2n1)c1ccc(F)cc1 (stereo not drawn) &field=viability at 100 µM returns 0%

* * *

system: MCF7; assay: Anticancer activity against human MCF7 cells assessed as cell viability at 100 uM after 24 hrs by MTT assay; type: functional; conditions: MCF7, 24 h, read-out: Activity
MEASURED METRIC: viability at 100 µM (%)
Only the number, expressed in %, is required.

Recorded viability at 100 µM, per entry:
>  <COMPOUND>
CC(O)Cn1nc2c(Br)c(Br)c(Br)c(Br)c2n1 (racemic)

>  <viability at 100 µM / %>
15

$$$$
>  <COMPOUND>
OC(CCn1nc2c(Br)c(Br)c(Br)c(Br)c2n1)c1ccc(Cl)cc1 (stereo not drawn)

>  <viability at 100 µM / %>
0

$$$$

As a next step, examine the compound that follows.
Entry CC(O)CCn1nc2c(Br)c(Br)c(Br)c(Br)c2n1 (racemic) , MCF7 data, viability at 100 µM value: 57
